Target: T1, canine OX40L, full length membrane form, expressed on HEK293 cells (canine)
T1 chain: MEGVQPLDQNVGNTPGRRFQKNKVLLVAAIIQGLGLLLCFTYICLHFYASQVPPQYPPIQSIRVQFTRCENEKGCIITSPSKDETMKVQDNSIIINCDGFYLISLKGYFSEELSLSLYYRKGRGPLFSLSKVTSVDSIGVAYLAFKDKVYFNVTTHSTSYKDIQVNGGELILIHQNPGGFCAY
Assay: cell-based or functional assay
Attribute measured: % Signal Inhibition Rep3 (%)
Field: numeric (%). Do not append units.

Binder | Unit abbreviation | % Signal Inhibition Rep3
PMX291 (antibody, V domains shown) VH: EVQLVESGGDLLKPGGSLRLSCVASGFPFRNYDMTWVRQAPGKGLQWVAAIHYDGSNTYYTDAVKGRFTISRDNARNTVFLQMNSLRAEDTAVYYCAKKFNNYRPFDYWGQGTLVTVSS VL: DIVMTQTPPSLSVSPRETPSISCKASQSLLRSDGNTYLEWYLQKPGQSPQLLIYLVSNRFTGVSDRFSGSGSGTDFTLRISRVEANDAGVYYCGQGTQLPWTFGAGTKVELK | % | 53.6

Name the recorded % Signal Inhibition Rep3 of the item PMX111 (antibody, V domains shown) VH: EVQLVESGGDLVRPGGSLRLSCVASGFTFSSYHMNWVRQAPGKGLQWVAFINSGASSATYADVVRGRFTISRDYAKNTLYLQMNSLRAEDTAVYYCASGSIWTHFDFWGQGTLVTVSS VL: SFVLTQLPSVSVTLRQTARITCGGDSVGSKSVYWYQQKLGQAPVLIIYRDSNRPTGIPERFSGASSGNTATLTISGALAEDEADYYCQVWDNSNKAMFGGGTHLTVL in your answer.
35.2

Name the recorded % Signal Inhibition Rep3 of the item PMX105 (antibody, V domains shown) VH: EVQLVESGGDLVKPGGSLRLSCVASGFTFNTYHMNWVRQAPGKGLHWVAFINSGGSGTSYEDTVQGRFTISRDYAKNTLYLQMNSLRAEDTAVYYCACGSIWTHFDYWGQGTLVTVSS VL: SYVLTQLPSVSVTLRQTAHITCGGDIIGSKSVYWYQQKLGQAPVMIIYRDNNRPTGIPERFSGASSGNTATLTISGSLAEDEADYYCQVWDSRTQALFGGGTHLTVL in your answer.
72.5

Name the recorded % Signal Inhibition Rep3 of the item PMX053 (antibody, V domains shown, also called PMX53) VH: EVQLVESGGDLVKPAGSLRLSCVASGFTFSSYSMSWVRQAPEKGLQLVAGINSAGSSTYYTDAVKGRFTISRDNAKNTVYLQMNSLRAEDTAIYYCAKRWVFDYWGQGTLVTVSS VL: DIVMTQTPLSLSVSPGEPASISCKASQSLPHSLGNTYLYWFRQKPGQSPQRLIYKVSNRDPGVPDRFSGSGSGTDFTLRISRVEADDAGIYYCGQGIQDPFTFGQGTKLEIK in your answer.
48.9

Name the recorded % Signal Inhibition Rep3 of the item PMX038 (antibody, V domains shown, also called PMX38) VH: EVQLVESGGDLVKPGGSLRLSCVASGFTFSSYHMSWVRQAPGKGLQWVAYITSGGRTTSYADAVKGRFTISRDNAKNTLYLQMKSLRAEDTAVYYCARDLVLVLGGAEYWGQGTLVTVSS VL: SYELTQPPSVNVTLRETAHITCGGDSIGRKYVQWIQQNPGQAPVVIIYKDSNRPTGIPERFSGANSGNTATLTISGALAEDEADYYCQVGDSGSKAVFGGGTHLTVL in your answer.
50.8

Name the recorded % Signal Inhibition Rep3 of the item PMX156 (antibody, V domains shown) VH: ELQLVESGGDLVKPAGSLRLSCVASGFTFSNFRMSWVRQAPGKGLQFVAGINSDGYSTQYRDDVKGRFTISRDNTEKTLYLQMNNLRVEDTAMYYCVKDQGSWGGNFDYWGQGTLVTVSS VL: SYGLTQPPSVNVTLRETAHITCGGDSIGSKYVQWIQQIPGQAPVVIIYKDRNRPTGIPERFSGANSGNTATLTISGALAEDEADYYCQVGDSGTSVFGGGTHLTVL in your answer.
49.1
